List of EC50, attenuation of ApoC3-mediated LPL inhibition (NEFA production) values.
- SYSTEM TESTED: human ApoC3 (huApoC3), native protein purified from human serum (human, UniProt P02656 21-99)
- Sequence (P02656 21-99): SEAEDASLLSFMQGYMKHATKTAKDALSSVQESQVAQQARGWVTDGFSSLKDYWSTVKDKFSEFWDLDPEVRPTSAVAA
- TEST PROTOCOL: cell-based or functional assay

Known results for binders:
BINDER | RESULT
6A6 IgG1 (antibody, V domains shown, IgG1 format) VH: EVQLVESGGGLVQPGGSLRLSCAASGFTFSSYAGRWVRQVPGKGLEWVSSINAGGGSTSYADSVKGRFTISRDNAKNTLYLQMNSLKPEDTAKYYCTQNSYRYWGQGTRVAVSS VL: DVVLTQTPGSLSVVPGESASISCKASQSLIHTDGKTYLYWLLQKPGQRPQLLIYQVSSHESGVPDRFTGSGSGTDFTLKISGVKAEDAGVYYCAQATYNPRTFGQGTKLEIK | > 5 µM
5E5 IgG1 (antibody, V domains shown) VH: QLQLVESGGGLVQPGGSLRLSCAASGFTFGTYSMRWVRQVPRKALEWVSSISTDGGGTAYRDSVKGRFTISRDNAKNTLYLQMNNLKPEDTAIYYCVIAGYSDWGQGTQVTVSS VL: ATMLTQSPGSLSVVPGESASISCKTSQGLVHSDGKTYFYWFLQKPGQSPQQLIYQVSNRASGVPDRFTGSGSGTDFTLKISGVKAEDAGVYYCAQGTYYPHTFGSGTRLEIK | > 5 µM

Next binder, EC50, attenuation of ApoC3-mediated LPL inhibition (NEFA production) to be filled in.
Input: Which EC50, attenuation of ApoC3-mediated LPL inhibition (NEFA production) value belongs to 14C7 IgG1 (antibody, V domains shown, IgG1 format) VH: QVQVQESGPGLVKPSQTLSLTCTVSGGSITTNSYYWSWIRQPPGKGLEWMGAIDYSGDTYYSPSLKSRTSISRDTSKNQFTLQLTSVTPEDTAVYYCVSRIPTGEYWGQGTQVTVSS VL: QTVVTQEPSLSVSPGGTVTLTCGLNSGSVTSSNYPDWYQQTPGQAPRLLIYNTNSRHSGVPSRFSGSISGNKAALTITGAQPEDEADYYCALYMGSDSVVFGGGTHLTVL ?
Output: ~2 µM
